Tested on: Ba/F3 cells expressing L858R/T790M/C797S (EGFR-LTC)
protocol description: Growth inhibition (GI50) of Ba/F3 cells expressing L858R/T790M/C797S (EGFR-LTC), Celltiter glo
Format: cell-based
test context: Mus musculus, BaF3, 72 h
endpoint: GI50

These recorded examples may help you get a feel for the data.
| compound | GI50 |
| --- | --- |
| COc1cc(N2CCC(N3CCN(C)CC3)CC2)c(Cl)cc1Nc1ncc(Cl)c(Nc2cc3c(cc2N(C)S(C)(=O)=O)CCO3)n1 [Example 249] | 0.001 to 0.025 µM |
| COc1cc(N2CCC(N3CCN(C)CC3)CC2)c(C)cc1Nc1ncc(Cl)c(Nc2cc(Cl)ccc2P(C)(C)=O)n1 [Example 153] | 0.1 to 0.5 µM |
| COc1cc(N2CCC(N3CCCN(C)CC3)CC2)c(Cl)cc1Nc1ncc(Cl)c(Nc2cc(Cl)ccc2NS(C)(=O)=O)n1 [Example 163] | 2 to 10 µM |
| COc1nc(N2CCC(N3CCN(C)CC3)CC2)c(C)cc1Nc1ncc(Cl)c(N(C)c2ccccc2NS(C)(=O)=O)n1 [Example 121] | 2 to 10 µM |

Hi team, please reply with GI50 for each item in this list.
1. CNS(=O)(=O)c1ccccc1Nc1nc(Nc2ccc(N3CCC(N(C)C)C3)nc2OC)ncc1Cl (stereo not shown) [Example 57]
2. COc1cc(N2CCC(N3CCN(C)CC3)CC2)c(C)cc1Nc1ncc(Cl)c(Nc2ccc3nccnc3c2NS(C)(=O)=O)n1 [Example 131]
3. COc1cc(N2CCC(N3CCCN(C)CC3)CC2)c(C)cc1Nc1ncc(Cl)c(Nc2ccc3c(c2)N(C)CC3)n1 [Example 275]

1. 0.5 to 2 µM
2. 0.001 to 0.025 µM
3. 0.5 to 2 µM

---

Please go through the items and note down their GI50.
Test system: Ba/F3 cells expressing L858R/T790M/C797S (EGFR-LTC)
protocol description: Growth inhibition (GI50) of Ba/F3 cells expressing L858R/T790M/C797S (EGFR-LTC), Celltiter glo
Type: cell-based
test context: Mus musculus, BaF3, 72 h

| compound smiles | GI50 |
| --- | --- |
| COc1nc(N2CCN(C3CCN(C)CC3)CC2)ccc1Nc1ncc(Br)c(Nc2ccc(F)cc2NS(C)(=O)=O)n1 | 100 to 500 nM |
| COc1cc(N2CCC(N3CCN(C)CC3)CC2)c(Cl)cc1Nc1ncc(Cl)c(Nc2ccc3nccnc3c2NS(C)(=O)=O)n1 | 100 to 500 nM |
| COc1cc(N2CCC(N3CCN(C)CC3)CC2)c(C)cc1Nc1ncc(Br)c(Nc2cc3c(cc2N(C)S(C)(=O)=O)CCO3)n1 | 1 to 25 nM |
| COc1cc(N2CCC(N3CCN(C)CC3)CC2)c(C)cc1Nc1ncc(Br)c(Nc2cc(Cl)ccc2NS(C)(=O)=O)n1 | 1 to 25 nM |
| COc1cc(N2CCC(N3CCN(C)CC3)CC2)c(Cl)cc1Nc1ncc(Br)c(Nc2ccc(F)cc2NS(C)(=O)=O)n1 | 25 to 100 nM |
| COc1nc(N2CCS(=O)(=O)CC2)ccc1Nc1ncc(Cl)c(Nc2ccccc2NS(C)(=O)=O)n1 | 500 to 2000 nM |

Kindly review the next compound as well.
// query GI50 value for entry `COc1cc(N2CCC(N3CCN(C(F)(F)F)CC3)CC2)c(C)cc1Nc1ncc(Cl)c(Nc2cc3c(cc2NS(C)(=O)=O)CCO3)n1` 25 to 100 nM

These measurements were taken from patent US20240228458A1.
